- Test system: HepG2
- Measurement protocol: cytotoxicity call (relative viability < 0.9)
- Condition summary: 10 µM
Out of some 39,000 compounds screened, about 3,300 (8.5%) were called active. What follows is part of a selection rich in actives, with near analogues and random picks from the rest.
In this exercise, the only acceptable responses are True for active, False for inactive

Data request: State the result this test recorded for Cc1noc(C)c1S(=O)(=O)N(C)C[C@H]1Oc2ccc(NS(=O)(=O)c3ccc(F)cc3)cc2CC(=O)N([C@@H](C)CO)C[C@H]1C .
Data returned: False

Data request: Then what about the compound CCOC(=O)Cn1cnc2ccccc2c1=O ?
Data returned: False

* * *

- System: HepG2
- Measurement protocol: cytotoxicity call (relative viability < 0.9)
- Condition summary: 10 µM
Hit rate of the full screen: of about 39,000 compounds, about 3,300 (8.5%) were called active. The sample as a whole holds a higher share of actives than the screen did.
In this exercise, the only acceptable responses are active, inactive

Solved cases below.
Compound	System tested	Category label
Cc1noc(C)c1NC(=O)Nc1ccc2c(c1)CC(=O)N([C@H](C)CO)C[C@H](C)[C@@H](CN(C)C(=O)Nc1cccc3ccccc13)O2	HepG2	inactive
CC(C)NC(=O)N(C)C[C@H]1Oc2ccc(NC(=O)C3CCCCC3)cc2CC(=O)N([C@H](C)CO)C[C@@H]1C	HepG2	active
CN(C)CC(=O)N[C@@H]1CC[C@H](CCNC(=O)C2CC2)O[C@H]1CO	HepG2	inactive
Cc1ccc(S(=O)(=O)N(C)C[C@H]2Oc3ccc(NS(=O)(=O)c4cn(C)cn4)cc3CC(=O)N([C@@H](C)CO)C[C@H]2C)cc1	HepG2	inactive
CC1=CC2(CO)C(=O)[C@]3(CO3)C1[C@H]1[C@]2(C)C=C(CO)C(=O)[C@]12CO2 (some centres undefined)	HepG2	inactive
C[C@H]1CN([C@@H](C)CO)C(=O)c2cccc(NC(=O)c3ccc(-c4nccs4)cc3)c2O[C@@H]1CN(C)Cc1ccc(-c2ccccc2)cc1	HepG2	inactive
C[C@H](CO)N1C[C@H](C)[C@@H](CN(C)Cc2ccccc2)Oc2c(NC(=O)c3cnccn3)cccc2C1=O	HepG2	inactive
Cc1nc(-c2ccncc2)sc1CN	HepG2	inactive

Data request: State the result this test recorded for COc1ccccc1N1CCN(c2ncc(C(=O)N3CCN(c4cccc(Cl)c4)CC3)c3ccccc23)CC1 .
Data returned: inactive

Data request: Then what about the compound Cc1ccc(S(=O)(=O)N(C)C[C@H]2Oc3c(NC(=O)NC(C)C)cccc3C(=O)N([C@@H](C)CO)C[C@@H]2C)cc1 ?
Data returned: inactive

Data request: Then what about the compound C[C@H]1CN([C@@H](C)CO)C(=O)Cc2cc(NC(=O)NC3CCCCC3)ccc2O[C@H]1CN(C)C(=O)Nc1cccc2ccccc12 ?
Data returned: active

Data request: Then what about the compound CCS(=O)(=O)N1C[C@]2(CN(C2)C(=O)Nc2ccc(cc2)F)c2c(n(c3cc(ccc23)OC)C)[C@H]1CO ?
Data returned: inactive

Data request: Then what about the compound C[C@H](CO)N1C[C@H](C)[C@H](CN(C)C(=O)Nc2cccc3ccccc23)Oc2ccc(NC(=O)C3CCCCC3)cc2CC1=O ?
Data returned: active

Data request: Then what about the compound C[C@H](CO)N1C[C@H](C)[C@@H](CN(C)Cc2ccc(-c3ccccc3)cc2)Oc2c(NC(=O)c3ccc(-c4nccs4)cc3)cccc2C1=O ?
Data returned: inactive

Data request: Then what about the compound CS(=O)(=O)N1C[C@H]2CN(C(=O)c3cnccn3)C[C@@H]2C1 ?
Data returned: inactive

Data request: Then what about the compound COc1ccc(CN(C)C[C@H]2OCCCC[C@@H](C)Oc3ccc(NS(=O)(=O)c4ccc(C)cc4)cc3C(=O)N([C@H](C)CO)C[C@H]2C)cc1 ?
Data returned: inactive

Data request: Then what about the compound C[C@@H]1CN([C@H](C)CO)C(=O)c2cccc(NC(=O)c3ccc(-c4nccs4)cc3)c2O[C@@H]1CN(C)Cc1ccc(C(=O)Nc2ccccc2N)cc1 ?
Data returned: active

Data request: Then what about the compound CC1CN(c2c(F)c(N)c3c(=O)c(C(=O)O)cn(C4CC4)c3c2F)CC(C)N1 (centres undefined) ?
Data returned: inactive

Numbers sourced from the antibiotic and cytotoxicity screens of Wong et al. (2023).
